- target: Gamma-secretase
- assay notes: Inhibition of gamma-secretase activity in H4 human neuroglioma cells by measuring amyloid beta production
- Format: cell-based
property label: IC50

Looking up CCCCN(C)C(=O)[C@H](CC1CCCCC1)NC(=O)[C@H](CC(C)C)NC(=O)[C@H](OC)c1ccccc1 , I see its IC50 listed as > 2500 nM

Looking up CCCCN(C)C(=O)[C@H](CC1CCCCC1)NC(=O)[C@H](CC(C)C)NC(=O)[C@](C)(O)c1ccccc1 , I see its IC50 listed as > 2500 nM

Looking up CCCCN(C)C(=O)[C@H](CC1CCCCC1)NC(=O)[C@H](CC(C)C)NC(=O)/C=C/c1ccccc1 , I see its IC50 listed as > 2600 nM

src = ChEMBL document CHEMBL1147518
